# Tested on: IGROV1 ovarian
# Assay Summary: NCI-60 one-dose screen, 48 h (100 = growth as untreated, 0 = no growth, -100 = all killed)
# Condition Context: 10 µM unless noted
This is part of a sample that, as a whole, favours compounds with a hit. Of some 83,000 tested, about 20% had one in any assay.
Rule: growth under 20% gives 0.0, otherwise 1.0.

# Molecule, System Under Test, Label Value
records = [
    ("O=C(N/N=C/c1c[nH]c2ccccc12)Nc1ccc(F)c(Cl)c1", "IGROV1 ovarian", 1.0),
    ("C=CC(=O)N1CCN(c2ccc3nc4c(nc3c2C(F)(F)F)C(=O)c2ncccc2C4=O)CC1", "IGROV1 ovarian", 0.0),
    ("COc1ccc2ccccc2c1/C=C1\\SC(=Nc2ccc(O)cc2)NC1=O", "IGROV1 ovarian", 0.0),
    ("N#Cc1ccc(C(=O)CSc2nc3c(c(Nc4ccc(S(N)(=O)=O)cc4)n2)CCC3)cc1", "IGROV1 ovarian", 0.0),
    ("COc1ccc(N=Nc2c(N)nn3c(-c4ccc([N+](=O)[O-])cc4)ccnc23)cc1", "IGROV1 ovarian", 1.0),
    ("Nc1cc(-c2c[nH]c3ccc(F)cc23)nc2cc(-c3c[nH]c4ccccc34)nn12", "IGROV1 ovarian", 0.0),
    ("COc1ccc(C2=Nc3c(N)nc(N)nc3NC(c3ccc(Oc4nc(Nc5ccc(F)cc5)nc(N(C)C)n4)c(OC)c3)C2)cc1 (stereo not given)", "IGROV1 ovarian", 1.0),
    ("O=C(N/N=C/c1ccc(Cl)cc1)c1ccc(OCc2nc3ccc(Cl)cc3[nH]2)cc1", "IGROV1 ovarian", 0.0),
    ("COc1cc(C=O)ccc1OC(=O)c1cc(-c2ccc(C)cc2)n(-c2ccc(S(C)(=O)=O)cc2)n1", "IGROV1 ovarian", 1.0),
    ("Cn1ncc2c(N)nc(Oc3ccccc3-c3ccccc3)nc21", "IGROV1 ovarian", 1.0),
]

---

# Tested on: HT29 colon
# Assay Summary: NCI-60 one-dose screen, 48 h
# Condition Context: 10 µM unless noted
This is part of a sample that, as a whole, favours compounds with a hit. Of some 83,000 tested, about 20% had one in any assay. The source made the active and inactive calls. The calls were made as follows: active = growth percent below 10; inactive = the rest.
Labels: active, inactive

# Molecule, System Under Test, Label Value
data = [
    ("Cc1ccccc1NC(=O)c1cccc(NC(=O)CCl)c1", "HT29 colon", "inactive"),
    ("CS(=O)(=O)Nc1cc(-c2ccc3ncnc(N4CCc5cc(F)c(Cl)cc54)c3c2)cnc1Cl", "HT29 colon", "inactive"),
    ("COc1ccc2[nH]c(O)c(N=Nc3nc(-c4ccccc4)cs3)c2c1", "HT29 colon", "inactive"),
    ("COc1c(F)ccc(C(=O)Nc2ccc3nc(NC(=O)C4CCCN(S(=O)(=O)c5ccc(C(C)(C)C)cc5)C4)sc3c2)c1F (configuration not stated)", "HT29 colon", "inactive"),
    ("NCCCCn1c(SCCc2c[nH]c3ccccc23)nnc1-c1ccc2ccccc2n1", "HT29 colon", "active"),
    ("O=C(Cn1c(-c2ccccc2)nc2ccccc21)N=Nc1c(O)[nH]c2ccc(Cl)cc12", "HT29 colon", "active"),
    ("O=C1Nc2cc(-c3ccc(NS(=O)(=O)c4ccc(C(F)(F)F)cc4)cc3)ccc2/C1=C/c1ccc[nH]1", "HT29 colon", "inactive"),
    ("Cc1oc(-c2ccccc2)nc1CN[C@@H]1C[C@@H]2C[C@H]([C@H]1C)C2(C)C", "HT29 colon", "active"),
    ("CC(C)CN1C(=O)/C(=C\\C(=O)c2cc3ccccc3oc2=O)c2ccccc21", "HT29 colon", "inactive"),
    ("COC(=O)c1cc(C(C)=O)n2c3ccccc3c3ccccc3c12", "HT29 colon", "inactive"),
    ("O=C(CSc1nnc(-c2ccc(-c3nc4ccccc4[nH]3)cc2)o1)Nc1ccc(Br)cc1", "HT29 colon", "inactive"),
    ("O=C(Nc1nc2ccccc2s1)Nc1ccccc1Cl", "HT29 colon", "inactive"),
    ("Cc1cc(=O)oc2cc(OCC(O)CNN3C(=O)c4cccc5c(N6CCN(C)CC6)ccc(c45)C3=O)ccc12 (configuration not stated)", "HT29 colon", "inactive"),
    ("CC[C@]12C=CCN3CC[C@]4(C(=C(C(=O)OC)C1)Nc1cc(OC)c([C@@H]5[C@H]6O[C@H]6[C@@]6(CC)CC(C(=O)OC)=C7Nc8cc(O)ccc8[C@@]78CCN5[C@@H]68)cc14)[C@@H]32", "HT29 colon", "active"),
    ("N#Cc1c(-c2ccc(F)cc2)nc(SCc2ccccc2)nc1N1CCNCC1", "HT29 colon", "active"),
    ("Cc1cnc2ccc(Oc3ccccc3-c3ccccc3)nn12", "HT29 colon", "inactive"),
    ("Fc1ccc(N2CC(Cn3c(C(F)(F)F)cc4c(Cl)ncnc43)C2)c(F)c1", "HT29 colon", "active"),
    ("COc1cc2cc(C(=O)N3C[C@@H](CCl)c4c3cc(OC(=O)N(CCC(=O)N3CCN(C)CC3)C3CCCCC3)c3ccccc43)[nH]c2c(OC)c1OC", "HT29 colon", "active"),
    ("CC1=C(C)C(=O)C(N2CCSCC2)=CC1=O", "HT29 colon", "inactive"),
    ("O=C(N/N=C/c1ccc(B(O)O)s1)c1[nH]c2ccc(Br)cc2c1-c1ccccc1", "HT29 colon", "active"),
    ("Cc1cccc(NCC(=O)N2CCN(c3ncnc4c3cnn4-c3ccccc3)CC2)c1", "HT29 colon", "inactive"),
    ("Cc1ccc(C(=O)Nc2ccc(-n3ccnc3)c(C(F)(F)F)c2)cc1C#Cc1cnc2cccnn12", "HT29 colon", "inactive"),
    ("N/C(=N\\c1nc2ccccc2s1)NC(=O)Nc1ccccc1F", "HT29 colon", "active"),
    ("COc1ccc(NC(=O)Nc2nc3ccc([N+](=O)[O-])cc3s2)cc1", "HT29 colon", "inactive"),
    ("COc1ccc(NC(=O)Cn2c(/C=C/c3ccc([N+](=O)[O-])cc3)nc3ccccc3c2=O)cc1", "HT29 colon", "inactive"),
    ("N#Cc1c(-c2ccc(F)cc2)nc(SCc2ccc(F)cc2)nc1N1CCNCC1", "HT29 colon", "active"),
    ("C=CC[n+]1cccc2c3ccccc3ccc21", "HT29 colon", "inactive"),
    ("CC[C@@]12CC(C(=O)OC)=C3Nc4cc5c(cc4[C@@]34CCN(C[C@H]3O[C@H]31)[C@@H]24)[C@@H]1[C@H](O5)[C@@H](O)[C@@]2(CC)CC(C(=O)OC)=C3Nc4cc(O)ccc4[C@@]34CCN1[C@@H]24", "HT29 colon", "active"),
    ("Cc1ccc(C(C(=O)NC2CCCCC2)N(Cc2ccccc2Cl)C(=O)c2ccc(CN3CCOCC3)o2)o1 (configuration not stated)", "HT29 colon", "inactive"),
    ("O=C(NC(=S)N1CCN(c2ncnc3c2cnn3-c2ccccc2)CC1)c1ccc(F)cc1", "HT29 colon", "inactive"),
    ("COc1ccc(N=Nc2c(N)nn3c(-c4ccc(OC)c(OC)c4)ccnc23)cc1", "HT29 colon", "inactive"),
    ("CS(=O)(=O)Nc1cccc(-n2cnc3cc(-c4ccc(O)cc4)ccc32)c1", "HT29 colon", "inactive"),
    ("Nc1nn2c(-c3cc4cc(Br)ccc4oc3=O)ccnc2c1N=Nc1ccccc1", "HT29 colon", "inactive"),
    ("CCCCCCCCc1ccc(C(=O)Nc2ccc(C)cc2C(=O)O)cc1", "HT29 colon", "inactive"),
    ("N#CC1=C(c2cccs2)Nc2c(c(-c3ccccc3)nn2-c2ccccc2)C12C(=O)Nc1ccc(Cl)cc12 (configuration not stated)", "HT29 colon", "inactive"),
    ("COc1ccc2[nH]c(O)c(N=Nc3nc(-c4ccc(C#N)cc4)cs3)c2c1", "HT29 colon", "inactive"),
    ("COc1cc(CNC(=O)C[C@H](C)CCC=C(C)C)ccc1OCc1cn(-c2ccc(Cl)c(Cl)c2)nn1", "HT29 colon", "inactive"),
]

---

# System: COLO 205 colon
# Assay Summary: NCI-60 one-dose screen, 48 h (100 = growth as untreated, 0 = no growth, -100 = all killed)
# Condition Context: 1 µM
About 83,000 compounds went through this panel and 20% of them were active in at least one assay; those are over-represented in the sample as a whole.

# Molecule, Unit Abbreviation, growth
measured = [
    ("CC/C(=C(/c1ccc(O)cc1)c1ccc(OCCN(C)C(=O)COCCOCCNC(=O)c2ccc3c(c2)CN([C@@H]2CCC(=O)NC2=O)C3=O)cc1)c1ccccc1", "%", 91.3),
    ("CC/C(=C(\\c1ccc(O)cc1)c1ccc(OCCNC)cc1)c1ccccc1", "%", 116),
    ("CC/C(=C(/c1ccc(O)cc1)c1ccc(OCCN(C)C(=O)CCOCCNC(=O)Cc2ccc3c(c2)CN([C@@H]2CCC(=O)NC2=O)C3=O)cc1)c1ccccc1", "%", 102),
    ("CC/C(=C(\\c1ccc(O)cc1)c1ccc(OCCN(C)C(=O)COCCNC(=O)Cc2ccc3c(c2)CN([C@@H]2CCC(=O)NC2=O)C3=O)cc1)c1ccccc1", "%", 72.2),
]
